Could you please report measured solubility thermodynamic at 24 h for the items listed next?
- Experiment summary: Equilibrium solubility of crystalline solid forms in simulated fluids (SGF, FaSSIF, FedSSIF)
- Format: physicochemical
- Measurement conditions: fessif, thermodynamic from solid; FedSSIF; room temperature, 24 hours
Lab book: enter the figure in mg/mL, no units written.

Task item: Which value of solubility thermodynamic at 24 h has been reported for Cc1ccc(S(=O)(=O)O)cc1.Cn1nccc1Nc1nccc(-c2cc3c(s2)C(C)(C)N(CCN2CCOCC2)C3=O)n1 [Example 3] in the records?
Reply: 13.5

Task item: Which value of solubility thermodynamic at 24 h has been reported for Cn1nccc1Nc1nccc(-c2cc3c(s2)C(C)(C)N(CCN2CCOCC2)C3=O)n1 [Free base, reference compound] in the records?
Reply: 5.65

###

- Experiment summary: Equilibrium solubility of crystalline solid forms in simulated fluids (SGF, FaSSIF, FedSSIF)
- Assay type: physicochemical
- Measurement conditions: thermodynamic from solid; FaSSIF; room temperature, 24 hours
Measurement name: solubility thermodynamic at 24 h (mg/mL)
Lab book: enter the figure in mg/mL, no units written.

Task item: Which value of solubility thermodynamic at 24 h has been reported for "Cc1ccc(S(=O)(=O)O)cc1.Cn1nccc1Nc1nccc(-c2cc3c(s2)C(C)(C)N(CCN2CCOCC2)C3=O)n1" in the records?
Reply: 12.2

Task item: Which value of solubility thermodynamic at 24 h has been reported for Cn1nccc1Nc1nccc(-c2cc3c(s2)C(C)(C)N(CCN2CCOCC2)C3=O)n1 [Free base, reference compound] in the records?
Reply: 0.13

###

- Experiment summary: Compaction properties / tabletability (Instron compaction, tensile strength)
- Format: physicochemical
- Measurement conditions: Pressure 191 MPa; 300 mg compact
Measurement name: Tensile (MPa)
Lab book: enter the figure in MPa, no units written.

Task item: Which value of Tensile has been reported for OC[C@H]1O[C@@H](O[C@H]2[C@H](O)[C@@H](O)C(O)O[C@@H]2CO)[C@H](O)[C@@H](O)[C@H]1O (stereo partly shown) [Lactose Anhydrous] in the records?
Reply: 3.1671

Task item: Which value of Tensile has been reported for CS(=O)(=O)O.Cn1nccc1Nc1nccc(-c2cc3c(s2)C(C)(C)N(CCN2CCOCC2)C3=O)n1 [Example 2] in the records?
Reply: 2.4082

Task item: Which value of Tensile has been reported for Cn1nccc1Nc1nccc(-c2cc3c(s2)C(C)(C)N(CCN2CCOCC2)C3=O)n1 [Free base, reference compound] in the records?
Reply: 1.6394

Task item: Which value of Tensile has been reported for OC[C@@H](O)[C@@H](O)[C@H](O)[C@H](O)CO [Mannitol SD200] in the records?
Reply: 2.1411

###

Could you please report measured Tensile for the items listed next?
- Experiment summary: Compaction properties / tabletability (Instron compaction, tensile strength)
- Assay type: physicochemical
- Measurement conditions: Pressure 64 MPa; 300 mg compact
- Experimental: The purpose of this study is to determine the compaction properties of certain solid forms of the present invention. The experimental compaction testing is evaluated on Instron Universal Testing System equipped with a 50 kN load cell using Natoli 10 mm flat round punches and die for material compression. The profiles are generated at 5, 10, and 15 kN with a target tablet weight of 300 mg for each compact. […] The compacts final weight is measured on a balance. […]
Lab book: enter the figure in MPa, no units written.

Task item: Which value of Tensile has been reported for "CS(=O)(=O)O.Cn1nccc1Nc1nccc(-c2cc3c(s2)C(C)(C)N(CCN2CCOCC2)C3=O)n1" in the records?
Reply: 1.2034

Task item: Which value of Tensile has been reported for "OC[C@@H](O)[C@@H](O)[C@H](O)[C@H](O)CO" in the records?
Reply: 0.4873

Task item: Which value of Tensile has been reported for Cn1nccc1Nc1nccc(-c2cc3c(s2)C(C)(C)N(CCN2CCOCC2)C3=O)n1 [Free base, reference compound] in the records?
Reply: 0.5415

Task item: Which value of Tensile has been reported for OC[C@H]1O[C@@H](O[C@H]2[C@H](O)[C@@H](O)C(O)O[C@@H]2CO)[C@H](O)[C@@H](O)[C@H]1O (stereo partly shown) [Lactose Anhydrous] in the records?
Reply: 0.9687
